- tested.on: Recombinant Human NF-kappaB-Inducing Kinase (NIK/MAP3K14) (Homo sapiens, UniProt Q99558)
- Sequence (Q99558 whole entry): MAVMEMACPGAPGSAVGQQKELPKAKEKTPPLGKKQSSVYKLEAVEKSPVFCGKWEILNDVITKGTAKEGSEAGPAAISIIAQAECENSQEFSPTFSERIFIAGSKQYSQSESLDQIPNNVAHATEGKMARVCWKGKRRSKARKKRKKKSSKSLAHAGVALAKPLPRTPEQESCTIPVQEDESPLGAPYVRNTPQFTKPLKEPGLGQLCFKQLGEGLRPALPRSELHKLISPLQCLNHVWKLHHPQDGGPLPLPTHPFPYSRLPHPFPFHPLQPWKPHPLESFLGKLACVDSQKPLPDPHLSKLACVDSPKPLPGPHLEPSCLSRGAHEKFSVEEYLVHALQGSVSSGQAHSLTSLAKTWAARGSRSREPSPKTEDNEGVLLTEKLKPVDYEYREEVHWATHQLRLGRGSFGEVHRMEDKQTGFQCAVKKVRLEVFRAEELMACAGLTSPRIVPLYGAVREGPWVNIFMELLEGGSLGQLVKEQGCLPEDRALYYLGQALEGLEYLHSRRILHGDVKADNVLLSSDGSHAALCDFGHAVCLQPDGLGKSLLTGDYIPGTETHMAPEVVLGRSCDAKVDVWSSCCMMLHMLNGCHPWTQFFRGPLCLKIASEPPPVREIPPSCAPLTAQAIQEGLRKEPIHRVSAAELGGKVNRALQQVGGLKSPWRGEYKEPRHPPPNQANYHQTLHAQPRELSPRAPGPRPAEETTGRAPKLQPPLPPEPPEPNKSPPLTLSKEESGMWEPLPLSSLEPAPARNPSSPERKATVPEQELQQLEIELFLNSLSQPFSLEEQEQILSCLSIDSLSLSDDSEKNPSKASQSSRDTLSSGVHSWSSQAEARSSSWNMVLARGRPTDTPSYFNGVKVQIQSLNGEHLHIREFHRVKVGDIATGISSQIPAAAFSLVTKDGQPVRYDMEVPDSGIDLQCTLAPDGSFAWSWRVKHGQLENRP
- assay.protocol: Biological Assay A2: inhibition of auto-phosphorylation of recombinant human NIK/MAP3K14 (AlphaScreen)
- Type: biochemical
- test.conditions: auto-phosphorylation; averaged over all measurements on all batches; read-out: αscreen IC50
pIC50: −log10 of the molar value.
assay.endpoint: pIC50

CC(O)(C#Cc1cc2c(-c3nc(N)ncc3F)cn(C3CN(C4CC4)C3)c2cn1)C1CC1 (centres unmarked) [Compound 104]
7.28
COCCNC(=O)c1c(-c2ccnc(N)n2)c2cc(C#CC(C)(C)O)ncc2n1C
7.05
CC(C)(O)Cn1cc(-c2ccnc(N)n2)c2cc(C#CC3(O)CCC3)ncc21
7.62
CC(C)(O)Cn1cc(-c2ccnc(N)n2)c2cc(C#CC(C)(O)c3ccccn3)ncc21 (centres unmarked)
6.64
CC(C)(O)C#Cc1cc2c(-c3nc(N)ncc3Cl)cn(CC(C)(C)O)c2cn1
7.82

[A] CC(C)(O)C#Cc1cc2c(-c3ccnc(N)n3)cn(CCN3CC(=O)NC3=O)c2cn1
[B] CC(C)(O)Cn1cc(-c2nc(N)ncc2Cl)c2cc(C#CC3(O)CCCC3)ncc21
Query: Given the two records A and B , choose the one whose pIC50 value is lower. Pick one; state its label.
Reply: A
